# credit: ChEMBL document CHEMBL4513216

system: Plasmodium berghei; assay: Screen against P. berghei liver stage (PbLuc), transformed with Luciferase, at 2uM; format: functional, HepG2; details: tested at 2 uM
Hit rate of the full screen: of about 68,000 compounds, about 2,700 (4%) showed an effect of 50% or more. Only a selection was taken, and strong results are over-represented in it overall.
hey, just use 1 if measured INHIBITION is less than 10%, otherwise -1

Field: below-cutoff. Rule: recorded INHIBITION strictly less than 10%. Subject: O=C(Nc1nccs1)C1CCCN1Cc1ccccn1 (stereo unspecified) -1

Now the compound NC(=O)C1CCCN1c1cc(N2CCc3ccccc3C2)ncn1 (stereo unspecified) 1

Can you check CC(=O)N1CCC(C(=O)NCCN2CCCCC2)CC1 next? -1

Again, but for Cc1cc(C[C@@H]2COC[C@H]2NCc2ccccc2C(F)(F)F)on1 -1

Queued: CC(=O)NCCNC(=O)c1nc(C2CC2)n(-c2ccccc2Cl)n1 1

What do you have for O=C(NCC1(O)COCCN(Cc2ccc(O)cc2)C1)c1cnccn1 (stereo unspecified) ? -1

---

test system: Plasmodium berghei; test: Screen against P. berghei liver stage (PbLuc), transformed with Luciferase, at 2uM; type: functional, HepG2; conditions: tested at 2 uM
The whole screen tested about 68,000 compounds, of which about 2,700 (4%) showed an effect of 50% or more. For the sample, strong results were picked, then their nearest neighbours and some compounds at random.
Just so you know, the groups by INHIBITION go like this: bin 1 (below 10%), bin 2 (10% to below 30%), bin 3 (30% or more)

Assign a category based on measured INHIBITION for Nc1ncc(-c2cccc(NC(=O)[C@@H]3CCCCN3)c2)cn1 and give only the class name. bin 2

// query: CCN1CC2(CC1=O)CN(C(=O)c1ccsc1)CCN(C(=O)N(C)C)C2 (stereo unspecified) bin 2

Now consider c1cnc(-c2cnc(N3CCSCC3)nc2C2CC2)cn1 and answer again. bin 1

Now this one: Cc1cc(N(C)C)nc(C2(C)CCCN2C(=O)c2cncnc2C)n1 (stereo unspecified) bin 2

Cc1nc(N)ncc1C(=O)N1CCCC1(C)C(=O)N(C)C (stereo unspecified) ? bin 3

Also need Cc1noc(C)c1C(=O)N1CCCC1(C)C(=O)NC1CCCC1 (stereo unspecified) , thanks. bin 2

Also Cc1ccc2[nH]c(CN(C)c3cc(CN)nc(C)n3)nc2c1 , if possible. bin 3

Do the same for CC(=O)NC(C)(C)c1noc(C2(C#N)CCCCC2)n1 please bin 2

Now the compound O=C1CC(c2ccccc2F)c2c(n3ccsc3nc2=O)N1 (stereo unspecified) bin 2

Okay, and Cc1ccc2[nH]c(CN(C)c3cc(CCN)nc(C)n3)nc2c1 ? bin 1

How about this compound: O=C(NCC1CCCO1)c1cc(-c2ccncc2)c2cnccc2n1 (stereo unspecified) bin 2

---

system: Plasmodium berghei; assay: Screen against P. berghei liver stage (PbLuc), transformed with Luciferase, at 2uM; type: functional, HepG2; conditions: tested at 2 uM
Screen size: about 68,000 compounds; about 2,700 (4%) showed an effect of 50% or more. For the sample, strong results were picked, then their nearest neighbours and some compounds at random.
Label rule, in plain words: INHIBITION of 30% and up is t, under 30% is f.

Does INHIBITION meet or surpass 30% for FC(F)(F)c1ccnc(N2CCCN(C3CCOCC3)CC2)c1 ? f

Repeat with CCN(Cc1nc(COC)no1)C[C@]1(O)CCCN2CCCC[C@@H]21 f

# repeat for COc1ccc(OCc2cc(C(=O)N3CCC(O)CC3)n[nH]2)c(Cl)c1 f

Again, but for COc1ccc(OCc2cc(C(=O)N3CCOCC3)n[nH]2)c(Cl)c1 f

Next compound up: O=C(NCCc1cccs1)[C@]12COC[C@H]1CN(C1CCOCC1)C2 f

Same question for Cc1ccc(OCC(C)NS(C)(=O)=O)cc1 (configuration not stated) please. t

Entry CN1CCC(N(C)C(=O)CSc2ccc(F)c(F)c2)C1=O (configuration not stated) please f

Now the same for CCCNC(=O)c1cn(C(C)(C)C)c2ncccc12 f

For CC1(C)COCCN1C(=O)CCc1nc(-c2ccccn2)no1 then? f

Further, for Cc1cc(C)n2ncc(CN3C[C@@H](O)[C@H](Oc4ccccc4)C3)c2n1 ? f

What do we get for COc1cccc(S(=O)(=O)NC(=O)CCC2CCCC2)c1 ? t

Please answer likewise for CNS(=O)(=O)CCCN1CCCN(Cc2ccccc2)CC1C (configuration not stated) t

Another: N#Cc1cccc(NC(=O)N(CC(F)F)C2CC2)c1 f

Again, but for CCC(CO)NC(=O)c1cc(COc2ccc(OC)cc2Cl)[nH]n1 (configuration not stated) t

// next record CC(NCc1ccc(-c2ccc(F)cc2)o1)c1nnc2n1CCC2 (configuration not stated) f

Similarly, Cc1noc([C@H]2C[C@H]3OCC[C@H]3N(C3CCC3)C2)n1 ? t

Field entry: CN(Cc1cn2c(n1)CN(Cc1ccc(F)cc1)CC2)Cc1ccco1 f

Repeat with CCOCC1CN(C(=O)c2ccncn2)Cc2cnn(CC)c21 (configuration not stated) f

What do you have for O=C1C(Nc2nccn3cnnc23)CCN1c1cccc(Cl)c1 (configuration not stated) ? t

Here is the next compound: COc1cc(N2CCC3(CC2)CC(N2CCOCC2)C3)ncn1 t

What would you report for Cc1ccc(OCC(C)NS(C)(=O)=O)cc1C (configuration not stated) ? t

CCN1CCCC1CNCc1cc2cc3c(cc2[nH]c1=O)OCCO3 (configuration not stated) ? f

Then CN1CCCC(N2CCN(c3cc(C(F)(F)F)ccn3)CC2)C1 (configuration not stated) ? f

Lookup COc1ccc(OCc2cc(C(=O)N3CC=CC3)n[nH]2)c(Cl)c1 f

What would you report for Cc1cnccc1CN1C[C@@H](O)[C@H](Oc2cccc(F)c2)C1 ? f

Input CC(C)N(C)Cc1cncc2c1CCN(Cc1ccoc1)C2 f

# repeat for Cc1nc(C2(O)CCCNCC2)sc1CCOc1ccccc1Cl (configuration not stated) f

And then COCCN1CCN(c2nc(O)cc(Cc3ccccc3F)n2)CC1 , what is it? f

Cool, now COc1ccc(OCC(C)NS(C)(=O)=O)cc1 (configuration not stated) t

Now consider CN1CCC(N(C)C(=O)CCc2ccc(F)c(F)c2)C1=O (configuration not stated) and answer again. f

How about CN1C(=O)[C@@H]2CC[C@H]1CN(Cc1cccc(OCc3ccccn3)c1)C2 ? f

Param item: CN1C(=O)CCC12CCN(S(=O)(=O)c1ccccc1)CC2 t

Now try COc1cc(N2CCC3(CC2)CC(N2CCOCC2)CO3)ncn1 (configuration not stated) . t

Then this compound: COc1ccc2c(ccn2CCC(=O)/N=c2\[nH]nc(C3CCCO3)s2)c1 (configuration not stated) f

What do you have for CN(C)c1ncc(CNC(=O)Nc2ccc(C(F)(F)F)cc2)n1C ? t

Item: COCCO[C@H]1CCN(c2cc(OC)ncn2)[C@H]1Cc1cccnc1 f

Repeat with COC(=O)c1cccc(S(=O)(=O)NC(=O)CC2CCCC2)c1 f

Then COc1ccc(OCc2cc(C(=O)N3CCSCC3)n[nH]2)c(Cl)c1 ? f

Please answer likewise for CC1CN(Cc2ccccc2)CCCN1CCCS(C)(=O)=O (configuration not stated) t

// query: CCn1cc(NC(=O)NCC(c2cccc(F)c2)N(C)C)cn1 (configuration not stated) f

Let us now turn to CCN(Cc1noc(CC(C)C)n1)C[C@]1(O)CCCN2CCCC[C@@H]21 f

Repeat for the following compound: COc1cc(N2CCC3(CC2)CC(N2CCN(C)CC2)CO3)ncn1 (configuration not stated) f

Subsequent entry: CNC(=O)C(C)NC(=O)c1cc(COc2ccc(OC)cc2Cl)[nH]n1 (configuration not stated) t

Same lookup for Cc1cc(=O)[nH]c(=O)n1-c1cccc(Cl)c1Cl , please. f

Also check CCC(O)CNC(=O)c1cc(COc2ccc(OC)cc2Cl)[nH]n1 (configuration not stated) t
